- System: Pseudomonas aeruginosa KCTC 1637
- experiment_summary: ≥ marks a high value that may be exact or a test limit, other limits are often not marked, values filed in µg/mL are converted to µM
property_label: MIC (µM)
Answers are plain numbers, in µM.

smiles_str: NC(N)=NCCC[C@H](NC(=O)[C@H](CCCN=C(N)N)NC(=O)[C@H](Cc1ccccc1)NC(=O)[C@@H]1CCCN1C(=O)[C@H](Cc1c[nH]c2ccccc12)NC(=O)[C@H](Cc1c[nH]c2ccccc12)NC(=O)[C@H](Cc1c[nH]c2ccccc12)NC(=O)[C@@H]1CCCN1C(=O)[C@H](Cc1ccccc1)NC(=O)[C@H](CCCN=C(N)N)NC(=O)[C@@H](N)CCCN=C(N)N)C(=O)O
observed_measurement: 9.47

# input Consider the compound `CC(C)C[C@H](NC(=O)[C@H](CCCCN)NC(=O)[C@H](CCCCN)NC(=O)[C@H](Cc1ccccc1)NC(=O)[C@H](CC(C)C)NC(=O)[C@H](CCCCN)NC(=O)[C@H](CCCCN)NC(=O)[C@H](Cc1ccccc1)NC(=O)[C@H](CCCCN)NC(=O)[C@H](CCCCN)NC(=O)[C@H](CCCN=C(N)N)NC(=O)[C@H](Cc1ccccc1)NC(=O)[C@H](CCCN=C(N)N)NC(=O)[C@H](CCCCN)NC(=O)[C@H](Cc1ccccc1)NC(=O)[C@H](CCCN=C(N)N)NC(=O)CN)C(=O)N[C@@H](CO)C(N)=O` . State its measured MIC.
# output 4

====

Below are MIC values recorded for Candida albicans ATCC 90028.

Example entries and their recorded answers appear below.
smiles_str: CC[C@H](C)[C@H](N)C(=O)N[C@@H](CC(C)C)C(=O)N[C@@H](CCCCN)C(=O)N[C@@H](CCCCN)C(=O)N[C@@H](CC(C)C)C(=O)N[C@@H](CC(C)C)C(=O)N[C@@H](CO)C(=O)N[C@H](C(=O)N[C@@H](C)C(=O)N[C@@H](C)C(=O)NCC(=O)N[C@@H](CC(C)C)C(=O)N[C@@H](CC(C)C)C(=O)N[C@@H](CO)C(=O)N[C@@H](CC(N)=O)C(=O)N[C@@H](CC(C)C)C(N)=O)[C@@H](C)O
target_desc: Candida albicans ATCC 90028
MIC: ≥ 32 µM
--
smiles_str: CC[C@H](C)[C@H](N)C(=O)N[C@@H](Cc1ccccc1)C(=O)N[C@@H](Cc1c[nH]c2ccccc12)C(=O)N[C@@H](CC(C)C)C(=O)N[C@@H](Cc1ccccc1)C(=O)N[C@@H](CCCN=C(N)N)C(=O)NCC(=O)N[C@@H](CCCCN)C(=O)N[C@@H](C)C(=O)N[C@@H](CC(=O)O)C(=O)N[C@H](C(=O)N[C@@H](C)C(=O)N[C@@H](CC(C)C)C(N)=O)C(C)C
target_desc: Candida albicans ATCC 90028
MIC: ≥ 83.3 µM
--
smiles_str: CC[C@H](C)[C@H](NC(=O)[C@H](CCCN=C(N)N)NC(=O)[C@H](CCCCN)NC(=O)[C@@H](NC(=O)[C@@H](NC(=O)[C@H](CCCN=C(N)N)NC(=O)[C@@H](N)CCCCN)[C@@H](C)CC)C(C)C)C(=O)N[C@@H](CCCCN)C(=O)N[C@@H](C)C(=O)N[C@@H](Cc1ccccc1)C(=O)N[C@@H](CC(C)C)C(=O)N[C@@H](CCCN=C(N)N)C(=O)O
target_desc: Candida albicans ATCC 90028
MIC: 1.25 µM
--
smiles_str: CC[C@H](C)[C@H](NC(=O)[C@H](CCCN=C(N)N)NC(=O)[C@H](C)NC(=O)[C@@H](NC(=O)[C@@H](NC(=O)[C@H](CCCN=C(N)N)NC(=O)[C@@H](N)CCCCN)[C@@H](C)CC)C(C)C)C(=O)N[C@@H](CCCCN)C(=O)N[C@@H](C)C(=O)N[C@@H](C)C(=O)N[C@@H](CC(C)C)C(=O)N[C@@H](CCCN=C(N)N)C(=O)O
target_desc: Candida albicans ATCC 90028
MIC: 10 µM

Please go through the list and note MIC for each molecule.
1. NC(=O)C[C@H](NC(=O)[C@H](Cc1ccccc1)NC(=O)[C@@H](N)Cc1c[nH]c2ccccc12)C(=O)O
2. CC[C@H](C)[C@H](NC(=O)[C@H](CCCN=C(N)N)NC(=O)[C@@H](NC(=O)[C@H](CCCN=C(N)N)NC(=O)[C@H](Cc1c[nH]c2ccccc12)NC(=O)[C@H](Cc1ccccc1)NC(=O)[C@@H]1CCCN1)[C@@H](C)CC)C(=O)N[C@@H](CCCN=C(N)N)C(=O)N[C@@H](CCCN=C(N)N)C(N)=O

# output
1: ≥ 100 µM; 2: ≥ 100 µM

Please go through the list and note MIC for each molecule.
1. CC[C@H](C)[C@H](N)C(=O)N[C@@H](CC(C)C)C(=O)N1CCC[C@H]1C(=O)N[C@H](C(=O)N[C@@H](CC(C)C)C(=O)NCC(=O)N[C@@H](CC(N)=O)C(=O)N[C@@H](CC(C)C)C(=O)N[C@@H](CC(C)C)C(=O)N[C@@H](CC(N)=O)C(=O)N[C@@H](CO)C(=O)N[C@@H](CC(C)C)C(=O)N[C@@H](CC(C)C)C(N)=O)[C@@H](C)CC
2. CC[C@H](C)[C@H](NC(=O)[C@H](CCCN=C(N)N)NC(=O)[C@H](CCC(N)=O)NC(=O)[C@@H](NC(=O)[C@@H](NC(=O)[C@H](CCCN=C(N)N)NC(=O)[C@@H](N)CCCCN)[C@@H](C)CC)C(C)C)C(=O)N[C@@H](C)C(=O)N[C@@H](CC(=O)O)C(=O)N[C@@H](Cc1ccccc1)C(=O)N[C@@H](CC(C)C)C(=O)N[C@@H](CCCN=C(N)N)C(=O)O

# output
1. ≥ 100 µM
2. ≥ 40 µM
